target_desc: HPK1 (Homo sapiens (Human), UniProt Q92918)
Sequence (Q92918 1-346 limits assumed): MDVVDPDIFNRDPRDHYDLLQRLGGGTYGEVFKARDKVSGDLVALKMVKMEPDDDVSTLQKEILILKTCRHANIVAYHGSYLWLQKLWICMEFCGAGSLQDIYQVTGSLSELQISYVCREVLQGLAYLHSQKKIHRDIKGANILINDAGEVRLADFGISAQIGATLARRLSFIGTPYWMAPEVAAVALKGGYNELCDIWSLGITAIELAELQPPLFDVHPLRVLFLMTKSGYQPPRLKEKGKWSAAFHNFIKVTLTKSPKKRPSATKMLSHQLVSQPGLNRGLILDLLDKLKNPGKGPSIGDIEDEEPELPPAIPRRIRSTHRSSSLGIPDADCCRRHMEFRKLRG
test_method_notes: HPK1 Lantha binding assay ("Lanth")
measurement_setup: binding assays; Morrison Ki fit
In plain terms, low Ki, meaning strictly below 40 nM, gives satisfied, and everything else gives not satisfied.

{"compound": "CN(C)C(=O)c1c(N)ccc(-c2cnc3c(c2Cl)[C@]2(CC[C@@](O)(Cn4cncn4)C2)CN3)c1F (relative stereo) [Compound 116a]", "target_desc": "HPK1 (Homo sapiens (Human), UniProt Q92918)", "group_label": "not satisfied"}
{"compound": "CN(C)C(=O)c1c(N)ccc(-c2cnc3c(c2Cl)[C@]2(CC[C@@](C)(CO)CC2)CN3)c1F [Compound 256a]", "target_desc": "HPK1 (Homo sapiens (Human), UniProt Q92918)", "group_label": "satisfied"}
{"compound": "CN(C)C(=O)c1c(N)ccc(-c2cnc3c(c2Cl)[C@]2(CC[C@H](n4ncnc4N)C2)CN3)c1F (single isomer, unassigned) [Compound 118a]", "target_desc": "HPK1 (Homo sapiens (Human), UniProt Q92918)", "group_label": "satisfied"}

Now look at this one.
Query block: Lab note: confirm whether the reported Ki for this compound is below 40 nM, equality not counting. compound: CO[C@H]1C[C@]2(CNc3ncc(-c4ccc(N)c(C(=O)N(C)C)c4F)c(Cl)c32)C1 [Compound 80a]
Result block: not satisfied
